Answer each item with its documented TGI.
test system: U251 CNS; experiment: NCI tumour cell line growth inhibition, 48 h

Hey, quick one: what's TGI for each of these?
1. COc1ccc(C(=O)OC2C(OC3C(O)COC(O[C@H]4C[C@H]5[C@@H]6CC=C7C[C@@H](O)CC[C@]7(C)[C@H]6CC[C@]5(C)[C@H]4[C@H](C)C(=O)CCC(C)C)C3OC(=O)C(C)C)OCC(O)C2O)cc1 (some centres not stated)
2. C=CC1CC12C(=O)C1OC2(C)C2C(=O)c3c(O)cccc3C(=O)C12 (configuration not stated)
3. O=S1(=O)OCc2ccccc21
4. CN(Cc1ccccc1)c1ncnc2ccc(Br)cc12
5. O=C(N/C(=C\NC1=NCCS1)C(=O)N1CSC[C@@H]1C(=O)O)c1ccccc1
6. c1cc2c(cc1NC1=NCCO1)CCCC2

A.
["4.16 µM", "77.7 µM", "> 100 µM", "24.6 µM", "> 100 µM", "24.8 µM"]
